- Assayed System: recombinant soluble homotrimeric HA, A/Netherlands/219/03 H7N7 (Influenza A virus A/Netherlands/219/03(H7N7))
- Procedure Text: microarray, transfection SN IgG, trimeric HA
- Condition Summary: remark: other sources report otherwise
Trimeric HA Binding: RLU values by entry
Measured Parameter: Trimeric HA Binding: RLU (RLU)

# Binder, Reading
rows = [
    ("TCN-547 (5092_F11) (antibody, V domains shown) VH: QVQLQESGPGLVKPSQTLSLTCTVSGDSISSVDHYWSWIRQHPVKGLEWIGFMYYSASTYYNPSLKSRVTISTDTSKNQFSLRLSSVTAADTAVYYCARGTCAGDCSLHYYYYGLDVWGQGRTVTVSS VL: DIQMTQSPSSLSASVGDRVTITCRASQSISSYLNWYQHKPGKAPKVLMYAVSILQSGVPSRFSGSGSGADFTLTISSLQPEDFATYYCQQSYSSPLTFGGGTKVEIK", 2090),
    ("TCN-504 (3251_K17) (antibody, V domains shown) VH: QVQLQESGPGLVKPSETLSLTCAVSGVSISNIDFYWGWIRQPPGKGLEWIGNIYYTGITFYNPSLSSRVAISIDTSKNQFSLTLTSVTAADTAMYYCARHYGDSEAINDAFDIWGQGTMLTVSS VL: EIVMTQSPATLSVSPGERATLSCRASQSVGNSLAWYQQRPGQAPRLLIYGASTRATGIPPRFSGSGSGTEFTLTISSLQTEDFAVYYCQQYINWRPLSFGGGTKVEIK", 30600),
    ("TCN-553 (5261_C18) (antibody, V domains shown) VH: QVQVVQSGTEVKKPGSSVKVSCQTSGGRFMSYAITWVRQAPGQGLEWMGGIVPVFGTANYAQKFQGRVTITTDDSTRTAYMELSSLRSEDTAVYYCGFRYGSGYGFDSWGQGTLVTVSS VL: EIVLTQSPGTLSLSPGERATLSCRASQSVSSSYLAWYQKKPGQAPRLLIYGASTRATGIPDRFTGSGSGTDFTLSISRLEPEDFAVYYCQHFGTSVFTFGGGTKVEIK", 7530),
]

These data points were gathered from patent US20150086555A1.
